Cited source: PubChem BioAssay

Form field: composite z-score (one value per entry).
# protocol: anti-His antibody binders, primary screen, artefact control for SMM control protein annotation, biochemical, small-molecule microarray, 635 nm fluorescence (AID 1128);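 further: score merges feature fluorescence with signal-to-noise for each printed compound spot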
# experimental.context: anti-His Alexa647 antibody binding, higher = more signal
Output spec: single numeric token, no unit.

In the examples that follow, each entry is paired with its recorded composite z-score.
compound	composite z-score
CCOC(=O)C[C@H]1[C@H](OC(=O)c2ccccc2-c2ccccc2)[C@@H](NC(=O)c2ccc(-c3ccccc3)cc2)c2cc(OCCCO)ccc2N1C(=O)Cc1ccc(OC)cc1	-0.293
Cc1ccc(N2C(=O)c3ccccc3[C@@H](C(=O)NCC(F)(F)F)[C@@H]2c2ccc(CO)cc2)nc1	-1.37
CO[C@@H]1COC(=O)[C@H](COCc2ccccc2)NC(=O)CC=C[C@@H](C)[C@H](OC)COC(=O)[C@H](COCc2ccccc2)NC(=O)CC=C[C@H]1C	-0.156
C=CCC(OC(C)=O)[C@@H]1[C@@H](N(Cc2cccc3ccccc23)C(=O)Cc2ccc(F)cc2)c2cc(OCCCO)ccc2N1C(=O)Cc1ccc2ccccc2c1 (stereo partly drawn)	-0.404

Notebook: COCCCNC(=O)[C@@H]1c2ccccc2C(=O)N(CC23CC4CC(CC(C4)C2)C3)[C@H]1c1ccc(CO)cc1 , composite z-score read as -0.348

Notebook: O=C1O[C@H](c2ccccc2)[C@H](c2ccccc2)N2[C@H]1[C@@H](C(=O)NC[C@H](O)c1ccccc1)[C@]1(C(=O)Nc3ccc(C#CC4(O)CCCCCC4)cc31)[C@H]2c1ccc(OCCO)cc1 , composite z-score read as 2.52

Notebook: COc1ccc([Si](C)(C)[C@@H]2[C@@H](CCO)O[C@]3(C(=O)N(Cc4ccc(NC(=O)[C@H](C)O)cc4)c4ccccc43)[C@H]2C)cc1 , composite z-score read as 1.79

Notebook: COC(=O)[C@H]1[C@@H]2COc3ccccc3[C@H]2N[C@H]1C(=O)OC , composite z-score read as -0.0432

Notebook: CCC#CCN(Cc1ccccc1Br)[C@H](/C=C/c1ccccc1)[C@@H](O)Cc1ccccc1 , composite z-score read as 0.017

Notebook: COc1ccc([Si](C)(C)[C@H]2[C@H](CC(=O)N3Cc4ccccc4C[C@H]3CO)O[C@@]3(C(=O)N(Cc4cccc(N5CCOC5=O)c4)c4ccccc43)[C@@H]2C)cc1 , composite z-score read as 1.42

Notebook: COCCOC(=O)N1C(=O)[C@@]2(c3cc(C#CCCO)ccc31)[C@H](c1ccc(OCCO)cc1)N1[C@H](c3ccccc3)[C@H](c3ccccc3)OC(=O)[C@H]1[C@@H]2C(=O)NC[C@H](O)c1ccccc1 , composite z-score read as 1.23

Notebook: O=C1O[C@H](c2ccccc2)[C@H](c2ccccc2)N2[C@H]1[C@@H](C(=O)NC[C@H](O)c1ccccc1)[C@]1(C(=O)Nc3ccc(C#CC4=CCCCC4)cc31)[C@H]2c1ccc(OCCO)cc1 , composite z-score read as 0.879

Notebook: O=C1O[C@@H](c2ccccc2)[C@@H](c2ccccc2)N2[C@@H](c3ccccc3OCCO)[C@]3(C(=O)Nc4ccc(C#CC5=CCCCC5)cc43)[C@@H](C(=O)O)[C@H]12 , composite z-score read as 1.91

###

# target.under.test: Dihydroorotate dehydrogenase (quinone), mitochondrial (Plasmodium falciparum (isolate 3D7))
# protocol: PfDHODH enzyme inhibitors, primary screen, biochemical, C-terminal His tag, absorbance 600 nm (AID 1175);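 further: recombinant parasite enzyme with a five histidine tag at its C terminus; test concentration not given here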
# experimental.context: DCIP absorbance 600 nm, higher = more signal, called active from +8 up or from −8 down
Where composite z-score equals or exceeds -0.5, the correct label is Fulfilled; where it does not, the label is Not fulfilled.

Solved entries (count: 5):
molecule	assigned.class
CN1C(=O)C2C=CC(C(O)c3ccc(N(C)C)cc3)N(Nc3ccc([N+](=O)[O-])cc3[N+](=O)[O-])C2C1=O (configuration not stated)	Not fulfilled
O=C(NCc1ccccc1)[C@@]1(Cc2ccccc2)COC(c2ccc(OCCCO)cc2)=N1	Fulfilled
NC(=O)NCC#Cc1ccc2c(c1)[C@]1(C(=O)N2)[C@H](C(=O)N2CCCCCCC2)[C@H]2C(=O)O[C@H](c3ccccc3)[C@H](c3ccccc3)N2[C@@H]1c1ccccc1OCCO	Fulfilled
CCOC(=O)[C@H]1C/C=C/C[C@H](C(=O)OCC)C(=O)O[C@H]2[C@@H](OC)O[C@H](CO)[C@@H](OC(=O)Nc3ccc(Br)cc3)[C@@H]2OC1=O	Not fulfilled
C=C(/C(=C/C[C@@H](OC(=O)c1ccncc1)c1ccc(CO)o1)c1cnc2ccccc2c1)C(C)C	Not fulfilled

QUERY: Item CCN1C(C)=C(C(=O)OC)[C@@H](c2ccccc2)N2C(=O)[C@@]3(C(=O)OC)O[C@@]12[C@@H]1C(=O)N(C)C(=O)[C@@H]13 with composite z-score of -0.5 or above?
RESULT: Fulfilled

QUERY: Item COCCOC(=O)N1C(=O)[C@@]2(c3cc(C#CC4=CCCCC4)ccc31)[C@H](C(=O)NC[C@H](O)c1ccccc1)[C@H]1C(=O)O[C@H](c3ccccc3)[C@H](c3ccccc3)N1[C@@H]2c1ccccc1OCCO with composite z-score of -0.5 or above?
RESULT: Fulfilled

###

# protocol: E. coli DRC41 culture turbidity changes, primary screen, E. coli filamentation inducer project, strain DRC41, OD650, 48 h (AID 1152);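 further: E. coli MC1000 strain DRC41 lacking acrAB efflux pump and sulA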
# experimental.context: E. coli DRC41 (acrAB sulA), higher = more signal, called active from +8 up or from −8 down
Form field: z-score (one value per entry).
Output spec: single numeric token, no unit.

In the examples that follow, each entry is paired with its recorded z-score.
compound	z-score
C=CCC(OC(C)=O)[C@@H]1[C@@H](N(Cc2ccc(-c3ccccc3)cc2)C(=O)c2ccc(-c3ccccc3)cc2)c2cc(OCCCO)ccc2N1C(=O)Cc1ccc(OC)cc1 (some centres not stated)	-0.685
Cc1ccc(S[C@]2(C(=O)O)CC(=O)N(Cc3ccccc3)[C@@H]2c2ccc(CO)cc2)cc1	2.89
[N-]=[N+]=NCc1ccccc1C[C@]1(C(=O)N2CCCCC2)N=C(c2ccc(OCCCO)cc2)O[C@H]1c1ccccc1CN=[N+]=[N-]	-0.481
O=C1O[C@H](c2ccccc2)[C@H](c2ccccc2)N2[C@H]1[C@@H](C(=O)NC[C@H](O)c1ccccc1)[C@]1(C(=O)Nc3ccc(C#CC4(O)CCCCCC4)cc31)[C@H]2c1ccc(OCCO)cc1	3.02
Cc1ccc(S[C@]2(C(=O)NC(C)C)CC(=O)N(Cc3cc(C(F)(F)F)cc(C(F)(F)F)c3)[C@@H]2c2ccc(CO)cc2I)cc1	0.191

Notebook: Cc1ccccc1C(O)C1C=CC2C(=O)N(c3ccccc3)C(=O)C2N1Nc1ccc(C#N)cc1 (configuration not stated) , z-score read as 0.307

Notebook: C=CCNC(=O)[C@H]1[C@@H]2C(=O)O[C@@H](c3ccccc3)[C@@H](c3ccccc3)N2[C@@H](c2ccccc2OCCO)[C@]12C(=O)N(C(=O)OCCOC)c1ccc(C#CCC(C(=O)OC)C(=O)OC)cc12 , z-score read as 2.88

Notebook: C=CCNC(=O)[C@H]1[C@@H]2C(=O)O[C@@H](c3ccccc3)[C@@H](c3ccccc3)N2[C@@H](c2ccccc2OCCO)[C@]12C(=O)N(C(=O)OCCOC)c1ccc(C#CCNC(N)=O)cc12 , z-score read as 1.8

Notebook: COc1cc2c(cc1OC)CN(C(=O)[C@H]1[C@@H]3C(=O)O[C@@H](c4ccccc4)[C@@H](c4ccccc4)N3[C@@H](c3ccc(O)cc3)[C@]13C(=O)Nc1ccc(C#CC4(O)CCCCCC4)cc13)CC2 , z-score read as -0.287

###

# protocol: MM1S myeloma cell viability, profiling panel, resazurin fluorescence, basal, 24 h, PK04 Diversity Set (AID 1174);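 further: MM1S multiple myeloma cell line; test concentration not given here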
# experimental.context: higher = more signal, called active from +8 up or from −8 down
Where z-score equals or exceeds 1, the correct label is MET; where it does not, the label is NOT MET.

Solved entries (count: 2):
compound	assigned.class
Cc1ccc(S[C@]2(C(=O)O)CC(=O)N(Cc3ccccc3)[C@@H]2c2ccc(CO)cc2)cc1	MET
C=CC[C@@]1(C(=O)NCC(O)CO)N=C(c2ccc(OCCCO)cc2)O[C@@H]1c1ccccc1CN=[N+]=[N-] (stereo partly specified)	NOT MET

QUERY: Item C=CCOC(=O)[C@@H]1[C@H]2C(=O)O[C@H](c3ccccc3)[C@H](c3ccccc3)N2[C@H](c2ccc(OCCOC(=O)[C@H]3C[C@H]4C(=O)N[C@@H](CCCCNC(C)=O)C(=O)N4[C@H]3c3ccc(O)cc3)cc2)[C@@]12C(=O)Nc1ccc(I)cc12 with z-score of 1 or above?
RESULT: NOT MET

QUERY: Item C=CCC(OC(C)=O)[C@@H]1[C@@H](N(Cc2cc3ccccc3o2)C(=O)c2ccc(C)cc2)c2cc(OCCCO)ccc2N1C(=O)c1ccc2ccccc2n1 (stereo partly specified) with z-score of 1 or above?
RESULT: MET

QUERY: Item COC(=O)[C@@]1(Cc2ccc(OC)cc2)[C@H]2c3cc(C(=O)N(C)C)n(CCc4ccc(OC)c(Br)c4)c3C[C@H]2CN1C(=O)c1ccccc1 with z-score of 1 or above?
RESULT: NOT MET
